# Tested on: LOX IMVI melanoma
# Experimental Details: NCI tumour cell line growth inhibition, 48 h; in the data active = GI50 below about 0.43 µM; inactive = the rest
Assign a class; possible classes are active, inactive

query: Identify the outcome logged in this assay for the compound shown: COC(=O)c1ccc2c(c1)C(=O)c1c-2n(CCCN)c(=O)c2cc(OC)c(OC)cc12
result: inactive

query: Identify the outcome logged in this assay for the compound shown: CCOC(=O)Nc1nc2cc(OCC)ccc2s1
result: inactive

query: Identify the outcome logged in this assay for the compound shown: CCC1(OC(=O)CN)C(=O)OCc2c1cc1n(c2=O)Cc2cc3cc4c(cc3nc2-1)OCO4 (centres undefined)
result: active

query: Identify the outcome logged in this assay for the compound shown: O=C(N/N=C/c1ccc(Cl)cc1)c1[nH]c2ccc(Cl)cc2c1-c1ccccc1
result: active

query: Identify the outcome logged in this assay for the compound shown: COc1nc(C)cc2c(=O)n(-c3ccccc3)n(CC(O)CN3CCN(c4ccc(Cl)cc4)CC3)c(=O)c12 (centres undefined)
result: inactive

query: Identify the outcome logged in this assay for the compound shown: CS(=O)(=O)[O-].CS(=O)(=O)[O-].NC1CCCCC1N.[Pt+4] (centres undefined)
result: inactive

query: Identify the outcome logged in this assay for the compound shown: CC[C@]1(O)C[C@@H]2CN(CCc3c([nH]c4ccccc34)[C@@](C(=O)OC)(c3cc4c(cc3OC)N(C)[C@H]3[C@@](O)(C(N)=O)[C@H](O)[C@]5(CC)[C@@H]6C[C@@H]6CN6CC[C@]43[C@@H]65)C2)C1
result: active

query: Identify the outcome logged in this assay for the compound shown: CC(=O)c1cccc(-c2cccc(-c3ccn(CCN4CCOCC4)n3)c2)c1
result: inactive

query: Identify the outcome logged in this assay for the compound shown: COC(=O)c1cc(-c2ccc(OC)cc2)[nH]c1N/N=C/c1c(Cl)cccc1Cl
result: active

###

# System: EKVX NSCLC
# Experimental Details: NCI tumour cell line growth inhibition, 48 h
Endpoint Label: TGI

query: Tell me the measured TGI of CN(C)CCNC(=O)c1cc(NC(=O)c2cc(NC(=O)CC/C=C3/[C@@H]4CC[C@H]3N=N4)cn2C)cn1C , please.
result: > 100 µM

query: Tell me the measured TGI of ClCc1ccc(C2OCCO2)cc1 , please.
result: > 63 µM

query: Tell me the measured TGI of O=NN1CCCS1(=O)=O , please.
result: > 100 µM

query: Tell me the measured TGI of CCN1CCCn2c(=O)[nH]c3cc(Br)cc1c32 , please.
result: > 100 µM

query: Tell me the measured TGI of CC[C@H](Nc1nc(N)nc(C2CC2)c1C#N)c1nc2cccc(NCc3ccc(C(=O)NO)cc3)c2c(=O)n1-c1ccccc1 , please.
result: 3.73 µM

query: Tell me the measured TGI of COc1ccc(OC)c(C[P+](c2ccccc2)(c2ccccc2)c2ccccc2)c1 , please.
result: > 94.6 µM

query: Tell me the measured TGI of C[C@]12CC[C@H]3[C@@H](CCC4=C(Br)C(=O)C=C[C@@]43O)[C@@H]1CCC2=O , please.
result: > 100 µM

query: Tell me the measured TGI of COc1ccccc1NC(=O)C1=C(C)NC(C)=C(C(=O)Nc2ccccc2OC)C1c1ccc(N(C)C)cc1 , please.
result: > 100 µM

query: Tell me the measured TGI of C=C(CCOC)CCC1CCCCC(=C)[C@H]1O (stereo not given in full) , please.
result: > 100 µM

query: Tell me the measured TGI of Cc1c(C(=O)CC(=O)C(=O)Nc2cc(Cl)ccc2Cl)[n+](=O)c2ccccc2n1[O-] , please.
result: > 100 µM
